Cited source: ChEMBL document CHEMBL6109083

Tested on: HCC95
experiment: Antiproliferative activity against human HCC95 cells assessed as inhibition of cell viability at 1 uM incubated for 3 to 6 days by CCK8 assay relative to control
Assay type: functional
test-conditions: time 3-6 day
Label criterion met when inhibition at 1 µM >= 10%; otherwise criterion not met.

>  <compound-structure>
O=C1C(NCCCc2ccncc2)=C(Cl)C(=O)c2ncccc21

>  <class-assignment>
criterion met

$$$$

Exercise: Textbook exercise: given the entry O=C1C(Nc2ccc(Oc3ccccc3)cc2)=C(Cl)C(=O)c2ncccc21 , state whether its inhibition at 1 µM is greater than or equal to 10%.
Key: criterion met

Exercise: Is inhibition at 1 µM for CC(C)(C)OC(=O)N1CCC(Cc2ccc(NC3=C(Cl)C(=O)c4ncccc4C3=O)cc2)CC1 at or above 10%?
Key: criterion met

Exercise: Check the entry O=C1C(Cl)=C(Nc2ccc(CN3CCOCC3)cc2)C(=O)c2ncccc21 : does inhibition at 1 µM equal or exceed 10%?
Key: criterion met
